# Tested on: ssDNA PolyT200
# protocol.notes: EMSA with ssDNA PolyT200
# Type: binding
# condition.label: different nucleobase ratios (20-100)
quantity.measured: nanostructure formation (EMSA)

Can you look up nanostructure formation (EMSA) on ssDNA PolyT200 for Ac-R-GS-UELUALEUELAULE-(Ahx)2-E (thymine)E (thymine)-(Ahx)2-KLUALKUKLAULKUG-K(PEG8) [R-AA-PEG8-U8] ?
successfully form

Can you look up nanostructure formation (EMSA) on ssDNA PolyT200 for Ac-R-GS-UELUALEUELAULE-(Ahx)2-E (thymine)E (thymine)-(Ahx)2-KLUALKUKLAULKUG-K(PEG8)2 [R-TT-PEG82-U8] ?
successfully form
